Tested on: CAKI-1 renal
assayNotes: NCI tumour cell line growth inhibition, 48 h
observable: TGI (µM)
Numbers only; they are read as µM.

Input NC(=O)c1c(NC(=O)c2cccc(C(F)(F)F)c2)sc2c1CCC(=O)C2 . Output TGI: 7.29

====

Here the recorded GI50 is given for each entry.
Test system: A549 NSCLC
assayNotes: NCI tumour cell line growth inhibition, 48 h

Cc1ccc(NCCNCC(O)CO)c2c(=O)c3ccccc3sc12 (centres undefined): 0.849 µM
COc1ccccc1-c1nccc(COc2ccccc2C[C@@H](Oc2ncnc3sc(-c4ccc(F)cc4)c(-c4ccc(OCCN5CCN(C)CC5)c(Cl)c4C)c23)C(=O)O)n1: 10 µM

GI50 for Cc1cc2c(-c3nc4ccccn4c3NC34CC5CC(CC(C5)C3)C4)c(O)c(O)cc2c(O)c1-c1c(C)cc2c(-c3nc4ccccn4c3NC34CC5CC(CC(C5)C3)C4)c(O)c(O)cc2c1O is 0.255 µM

Entry CN1CCN(CCCOc2ccc3ncnc(Nc4ccc(Oc5cccc(F)c5)c(Cl)c4)c3c2)CC1 ; GI50 = 1.56 µM
